tested on: human SMAD7 mRNA; assay: Dose-dependent inhibition of human SMAD7 mRNA expression in Hep3B cells (Example 3, Study 1 and 2); format: cell-based; conditions: electroporation, Study 2 (740-20000 nM)
pIC50: −log10 of the molar value. Strand notation (5' to 3'): a small letter for the sugar, then the base; units joined by * are phosphorothioate-linked, units joined directly phosphodiester-linked; [ ] holds rarer units or linkages, { } end groups; capitals alone tell only the bases. k = constrained ethyl (cEt); [5mC] = 5-methylcytosine; d = 2'-deoxy (DNA)
reported_metric: pIC50

Use the examples below as a reference point.
substance	reported_metric	result
798662 (kG*k[5mC]*kT*d[5mC]*d[5mC]*dG*dG*d[5mC]*dT*dG*d[5mC]*d[5mC]*d[5mC]*k[5mC]*kA*k[5mC]; antisense) [compound 798662]	pIC50	< 4.70
830121 (AGAATCAAGCCCTGGC; 3-10-3 cEt gapmer, further chemistry not given here) [compound 830121]	pIC50	> 6.15

Then this substance:
Kindly state the measured pIC50 obtained for 799321 (antisense kA*kT*k[5mC]*dT*dG*dG*dA*d[5mC]*dA*dG*dT*d[5mC]*dT*kG*k[5mC]*kT) [compound 799321] with human SMAD7 mRNA.
> 6.15

====

test system: human SMAD7 mRNA; assay: Dose-dependent inhibition of human SMAD7 mRNA expression in Hep3B cells (Example 3, Study 1 and 2); type: cell-based; conditions: 6670.0 nM, electroporation, approximately 16 hours, Study 2
Strand notation (5' to 3'): a small letter for the sugar, then the base; units joined by * are phosphorothioate-linked, units joined directly phosphodiester-linked; [ ] holds rarer units or linkages, { } end groups; capitals alone tell only the bases. k = constrained ethyl (cEt); [5mC] = 5-methylcytosine; d = 2'-deoxy (DNA)
reported_metric: % inhibition of SMAD7 mRNA expression (%)
Enter your answer as a number in %; do not include the unit.

>>> df
                                  substance       measured_on                        reported_metric  readout_number
0  799089 (antisense kA*kG*k[5mC]*dA*dA*dT*dA*d[5mC]*dT*dG*dT*dG*dA*kG*kG*kG) [compound 799089]  human SMAD7 mRNA  % inhibition of SMAD7 mRNA expression              61

GET /values?readout=% inhibition of SMAD7 mRNA expression&item= 830135 (antisense kA*kA*kG*dT*dA*d[5mC]*dA*dA*dT*d[5mC]*dT*d[5mC]*d[5mC]*kT*kG*kG) [compound 830135]
56

Which % inhibition of SMAD7 mRNA expression is reported for this substance? 799159 (antisense kG*kT*kG*dT*dA*dT*dG*dA*dG*dT*dT*dG*dT*kA*kG*kA) [compound 799159]
78

Dear colleague, I am looking for the recorded % inhibition of SMAD7 mRNA expression of the following substance: 799568 (k[5mC]*kA*kT*dT*dA*dG*dA*dA*dG*d[5mC]*dT*dT*dT*kG*kA*kG; antisense) [compound 799568]
84

====

The following substances are listed with their measured % inhibition of SMAD7 mRNA expression values.
system: human SMAD7 mRNA; assay: Dose-dependent inhibition of human SMAD7 mRNA expression in Hep3B cells (Example 3, Study 1 and 2); assay type: cell-based; conditions: 20000.0 nM, electroporation, approximately 16 hours, Study 2
Strand notation (5' to 3'): a small letter for the sugar, then the base; units joined by * are phosphorothioate-linked, units joined directly phosphodiester-linked; [ ] holds rarer units or linkages, { } end groups; capitals alone tell only the bases. k = constrained ethyl (cEt); [5mC] = 5-methylcytosine; d = 2'-deoxy (DNA)
Give your result in % as a bare value.

Below, each entry is followed by its recorded % inhibition of SMAD7 mRNA expression result.
>>> print(df.to_string())
                                  substance  readout_number
0  830163 (antisense k[5mC]*kA*kA*d[5mC]*dT*dG*dA*dA*dG*dG*dT*dG*dA*k[5mC]*k[5mC]*k[5mC]) [compound 830163]              84
1  801040 (antisense kG*kT*k[5mC]*dA*dT*dG*dA*dA*dA*dG*dA*dT*dT*k[5mC]*kT*kT) [compound 801040]              95
2  799406 (antisense kG*kG*kG*dA*dA*d[5mC]*dA*dT*dG*dG*d[5mC]*d[5mC]*dT*kT*kT*k[5mC]) [compound 799406]              84
3  830051 (kT*kA*kG*dT*dT*dT*d[5mC]*d[5mC]*dG*dA*dT*dT*dG*kG*k[5mC]*kA; antisense) [compound 830051]              67
4  799321 (antisense kA*kT*k[5mC]*dT*dG*dG*dA*d[5mC]*dA*dG*dT*d[5mC]*dT*kG*k[5mC]*kT) [compound 799321]              67

Field: next substance
Consider the substance 829734 (antisense kT*k[5mC]*k[5mC]*dG*d[5mC]*dA*d[5mC]*dA*d[5mC]*d[5mC]*dA*dT*dG*kA*kA*kG) [compound 829734] and give its measured % inhibition of SMAD7 mRNA expression.
68

====

system: human SMAD7 mRNA; experiment: Antisense inhibition of human SMAD7 mRNA expression in Hep3B cells by 3-10-3 cEt gapmers, 10,000 nM, electroporation (Example 2); type: cell-based; conditions: Hep3B cells, electroporation with 10,000 nM antisense oligonucleotide, approximately 24 hours, RTS5062, percent inhibition of SMAD7 mRNA relative to untreated control cells
Strand notation (5' to 3'): a small letter for the sugar, then the base; units joined by * are phosphorothioate-linked, units joined directly phosphodiester-linked; [ ] holds rarer units or linkages, { } end groups; capitals alone tell only the bases. k = constrained ethyl (cEt); [5mC] = 5-methylcytosine; d = 2'-deoxy (DNA)
A collection of substances and their measured % Inhibition
Give a bare numeral; the unit % is implied.

Observe how each entry below is paired with its result.
>>> df
                                  substance  reported_metric  readout_number
0  799532 (kG*k[5mC]*kA*dG*dA*dA*dG*dG*d[5mC]*d[5mC]*dA*d[5mC]*d[5mC]*k[5mC]*k[5mC]*k[5mC]; antisense) [compound 799532]     % Inhibition              21
1  799592 (kG*kG*kA*dA*dT*dT*dA*dG*dT*dA*dA*dA*dT*k[5mC]*kA*kA; antisense) [compound 799592]     % Inhibition              47
2  799782 (k[5mC]*kA*kT*dA*dA*dT*dA*dG*dG*dT*dG*dT*d[5mC]*kA*kA*kT; antisense) [compound 799782]     % Inhibition               4
3  799729 (antisense kT*kA*kT*d[5mC]*dT*dT*d[5mC]*d[5mC]*d[5mC]*dG*d[5mC]*dT*dG*kA*kA*kA) [compound 799729]     % Inhibition              52
4  799573 (kA*kA*kT*dA*dA*dA*dA*d[5mC]*d[5mC]*dA*dT*d[5mC]*dT*kA*kA*k[5mC]; antisense) [compound 799573]     % Inhibition               0

// fetch human SMAD7 mRNA % Inhibition for 799810 (antisense k[5mC]*kT*kT*dA*dT*dT*dG*dT*dT*dT*dT*dT*dG*kT*kT*k[5mC]) [compound 799810]
14

Item: 799609 (k[5mC]*k[5mC]*k[5mC]*d[5mC]*dA*dT*dG*dG*dA*dA*d[5mC]*dG*dA*kT*k[5mC]*kA; antisense) [compound 799609] Test system: human SMAD7 mRNA Read-out: % Inhibition Value: ?
41

====

test system: human SMAD7 mRNA; assay: Dose-dependent inhibition of human SMAD7 mRNA expression in Hep3B cells (Example 3, Study 1 and 2); assay type: cell-based; details: 6670.0 nM, electroporation, approximately 16 hours, Study 2
Strand notation (5' to 3'): a small letter for the sugar, then the base; units joined by * are phosphorothioate-linked, units joined directly phosphodiester-linked; [ ] holds rarer units or linkages, { } end groups; capitals alone tell only the bases. k = constrained ethyl (cEt); [5mC] = 5-methylcytosine; d = 2'-deoxy (DNA)
The following substances are listed with their measured % inhibition of SMAD7 mRNA expression values.
# output: bare number, implied unit %

Consider the reported % inhibition of SMAD7 mRNA expression for these substances:
                                  substance       measured_on  readout_number
0  799980 (k[5mC]*k[5mC]*kA*dA*d[5mC]*dG*dG*dT*dT*dG*d[5mC]*d[5mC]*dT*k[5mC]*kA*kT; antisense) [compound 799980]  human SMAD7 mRNA              51
1  799667 (antisense kA*k[5mC]*kA*dG*dA*dT*dG*d[5mC]*d[5mC]*dA*dG*d[5mC]*dA*kA*kG*kG) [compound 799667]  human SMAD7 mRNA              17
2  799709 (antisense kT*k[5mC]*kA*dA*dA*d[5mC]*dT*dT*dG*dT*dG*dG*dT*kA*kA*kA) [compound 799709]  human SMAD7 mRNA              36

Lab note: next substance to report on.
What does the record list as % inhibition of SMAD7 mRNA expression for 799467 (antisense kG*k[5mC]*kA*dG*dA*d[5mC]*dA*dG*dA*dA*dG*d[5mC]*dT*k[5mC]*kT*kA) [compound 799467] ?
65
